# Target or test system: K-Ras G12C (Homo sapiens (Human), UniProt P01116+P62937, G12C)
# Sequence (P01116-2 other isoform, or with tags, fused parts or gaps G12C): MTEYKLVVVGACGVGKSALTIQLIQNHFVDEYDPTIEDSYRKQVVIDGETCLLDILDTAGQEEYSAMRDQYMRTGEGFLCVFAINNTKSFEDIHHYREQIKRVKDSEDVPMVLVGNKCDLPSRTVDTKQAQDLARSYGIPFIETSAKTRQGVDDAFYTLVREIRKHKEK
# Sequence (P62937 whole entry): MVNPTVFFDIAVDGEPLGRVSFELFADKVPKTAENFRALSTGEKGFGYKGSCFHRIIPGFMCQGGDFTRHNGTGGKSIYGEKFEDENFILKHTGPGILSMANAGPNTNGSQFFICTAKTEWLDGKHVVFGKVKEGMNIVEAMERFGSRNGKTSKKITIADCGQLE
# Assay protocol: Ras-Raf (BRAF RBD) disruption / FRET / MOA assay, KRAS G12C
# Assay type: biochemical
# Conditions: KRAS G12C; Ras-Raf disruption/FRET/MOA assay; read-out: IC50* KRAS G12C FRET data
pIC50: −log10 of the molar value.
Measured metric: pIC50

Prompt: Which pIC50 is reported for this molecule? CCn1c(-c2cccnc2[C@H](C)OC)c2c3cc(ccc31)-c1cccc(c1)C[C@H](NC(=O)[C@H](C(C)C)N(C)C(=O)[C@H]1CCN(C(=O)C#CC3(N(C)C)CCOCC3)C1)C(=O)N1CCC[C@H](N1)C(=O)OCC(C)(C)C2 (atropisomer, axis not shown)
Completion: 7.00 to 8.00

Prompt: Which pIC50 is reported for this molecule? CO[C@@H](C)c1ncccc1-c1c2c3cc(ccc3n1CC(F)(F)F)-c1cccc(c1)C[C@H](NC(=O)[C@@H](COC1CN(C(=O)C#CC(C)(C)N(C)C)C1)C(C)C)C(=O)N1CCC[C@H](N1)C(=O)OCC(C)(C)C2 (atropisomer, axis not shown)
Completion: > 8.00

Prompt: Which pIC50 is reported for this molecule? C=CC(=O)N(C)[C@H]1CC1N(C)C(=O)N(C)[C@H](C(=O)N[C@H]1Cc2nc(cs2)-c2ccc3c(c2)c(c(-c2cccnc2[C@H](C)OC)n3CC)CC(C)(C)COC(=O)[C@@H]2CCCN(N2)C1=O)C(C)C (stereo partly drawn)
Completion: 6.00 to 7.00

Prompt: Which pIC50 is reported for this molecule? CO[C@@H](C)c1ncccc1-c1c2c3cc(ccc3n1CC(F)(F)F)-c1cc(cc(C(F)F)c1)C[C@H](NC(=O)[C@@H](COC1CN(C(=O)C#CC(C)(C)N(C)C)C1)C(C)C)C(=O)N1CCC[C@H](N1)C(=O)OCC(C)(C)C2 (atropisomer, axis not shown)
Completion: 6.00 to 7.00

Prompt: Which pIC50 is reported for this molecule? CO[C@@H](C)c1ncccc1-c1c2c3cc(ccc3n1CC(F)(F)F)-c1nc(co1)C[C@H](NC(=O)[C@H](C(C)C)N(C)C(=O)C1(F)CCN(C(=O)C#CC(C)(C)N(C)C)CC1)C(=O)N1CCC[C@H](N1)C(=O)OCC(C)(C)C2 (atropisomer, axis not shown)
Completion: > 8.00

Prompt: Which pIC50 is reported for this molecule? C=CC(=O)N1CC[C@H](C(=O)N(C)[C@H](C(=O)N[C@H]2CC3=NN=C(O3)c3ccc4c(c3)c(c(-c3cccnc3[C@H](C)OC)n4CC)CC(C)(C)COC(=O)[C@@H]3CCCN(N3)C2=O)C(C)C)C1 (atropisomer, axis not shown)
Completion: 6.00 to 7.00

Prompt: Which pIC50 is reported for this molecule? C=CC(=O)N1CCO[C@]2(CCN(C(=O)N(C)[C@H](C(=O)N[C@H]3Cc4nc(cs4)-c4ccc5c(c4)c(c(-c4cccnc4[C@H](C)OC)n5CC(F)(F)F)CC(C)(C)COC(=O)[C@@H]4CCCN(N4)C3=O)C(C)C)C2)C1 (atropisomer, axis not shown)
Completion: 6.00 to 7.00

Prompt: Which pIC50 is reported for this molecule? C=CC(=O)N1CC[C@H](C(=O)N(C)[C@H](C(=O)N[C@H]2Cc3nc(cs3)-c3ccc4c(c3)c(c(-c3cccnc3[C@H](C)OC)n4CC)CC(C)(C)CCC[C@@H]3CCCN(N3)C2=O)C(C)C)C1 (atropisomer, axis not shown)
Completion: < 5.00

Prompt: Which pIC50 is reported for this molecule? C=CC(=O)N1CC(F)(C(=O)N(C)[C@H](C(=O)N[C@H]2Cc3cccc(c3)-c3ccc4c(c3)c(c(-c3cccnc3[C@H](C)OC)n4CC)CC(C)(C)COC(=O)[C@@H]3CCCN(N3)C2=O)C(C)C)C1 (atropisomer, axis not shown)
Completion: 7.00 to 8.00

Prompt: Which pIC50 is reported for this molecule? C=C(C)C(=O)N1CC2(CCN(C(=O)N(C)[C@H](C(=O)N[C@H]3Cc4nc(cs4)-c4ccc5c(c4)c(c(-c4cccnc4[C@H](C)OC)n5CC)CC(C)(C)COC(=O)[C@@H]4CCCN(N4)C3=O)C(C)C)CC2)C1 (atropisomer, axis not shown)
Completion: 7.00 to 8.00

Prompt: Which pIC50 is reported for this molecule? C=CC(=O)N1CCC2(CC1)CCN([C@H](C(=O)N[C@H]1Cc3cc(O)cc(c3)-c3ccc4c(c3)c(c(-c3cccnc3[C@H](C)OC)n4CC)CC(C)(C)COC(=O)[C@@H]3CCCN(N3)C1=O)C(C)C)C2=O (atropisomer, axis not shown)
Completion: 7.00 to 8.00

Prompt: Which pIC50 is reported for this molecule? C=CC(=O)N1CCOC2(CCN(C(=O)N(C)[C@H](C(=O)N[C@H]3Cc4cccc(n4)-c4ccc5c(c4)c(c(-c4cccnc4[C@H](C)OC)n5CC(F)(F)F)CC(C)(C)COC(=O)[C@@H]4CCCN(N4)C3=O)C(C)C)CC2)C1 (atropisomer, axis not shown)
Completion: 6.00 to 7.00

Prompt: Which pIC50 is reported for this molecule? C=CC(=O)N1CC[C@H](C(=O)N(C)[C@H](C(=O)N[C@H]2Cc3cc(O)cc(c3)-c3ccc4c(c3)c(c(-c3cccnc3[C@@H](OC)C3CC3)n4CC)CC(C)(C)COC(=O)[C@@H]3CCCN(N3)C2=O)C(C)C)C1 (atropisomer, axis not shown) [Example A207]
Completion: 7.00 to 8.00

Prompt: Which pIC50 is reported for this molecule? CCn1c(-c2cncnc2C(C)C)c2c3cc(ccc31)-c1cc(O)cc(c1)C[C@H](NC(=O)[C@H](C(C)C)N(C)C(=O)[C@H]1CCN(C(=O)C#CCN(C)C)C1)C(=O)N1CCC[C@H](N1)C(=O)OCC(C)(C)C2 (atropisomer, axis not shown)
Completion: 7.00 to 8.00

Prompt: Which pIC50 is reported for this molecule? C=CC(=O)N1CCC2(C1)OCN([C@H](C(=O)N[C@H]1Cc3cccc(c3)-c3ccc4c(c3)c(c(-c3cccnc3[C@H](C)OC)n4CC)CC(C)(C)COC(=O)[C@@H]3CCCN(N3)C1=O)C(C)C)C2=O (stereo partly drawn)
Completion: 7.00 to 8.00
